Target: IKKε (Homo sapiens)
Construct: purchased Invitrogen PR8031B
Sequence (Q14164 whole entry): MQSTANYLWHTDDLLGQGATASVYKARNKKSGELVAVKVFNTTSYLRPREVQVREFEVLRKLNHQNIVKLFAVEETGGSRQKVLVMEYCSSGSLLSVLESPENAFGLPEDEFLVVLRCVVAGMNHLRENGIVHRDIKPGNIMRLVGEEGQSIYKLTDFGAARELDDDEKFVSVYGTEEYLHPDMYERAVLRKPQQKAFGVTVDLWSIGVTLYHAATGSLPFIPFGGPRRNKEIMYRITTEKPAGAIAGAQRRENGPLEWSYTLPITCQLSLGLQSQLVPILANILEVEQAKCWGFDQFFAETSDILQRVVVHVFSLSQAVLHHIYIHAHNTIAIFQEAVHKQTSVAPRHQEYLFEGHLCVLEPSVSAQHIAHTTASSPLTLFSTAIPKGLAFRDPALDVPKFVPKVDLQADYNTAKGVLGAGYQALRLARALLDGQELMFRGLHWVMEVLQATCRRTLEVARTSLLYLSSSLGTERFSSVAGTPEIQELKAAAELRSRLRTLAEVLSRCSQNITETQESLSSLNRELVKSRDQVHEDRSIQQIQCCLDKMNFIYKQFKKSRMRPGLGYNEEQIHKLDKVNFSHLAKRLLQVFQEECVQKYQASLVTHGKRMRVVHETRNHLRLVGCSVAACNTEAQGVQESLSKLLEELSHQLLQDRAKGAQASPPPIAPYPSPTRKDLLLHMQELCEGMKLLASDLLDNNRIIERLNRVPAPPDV
Test: IKKε inhibition, ADP-Glo Kinase Assay
Format: biochemical
Details: luminometer
READOUT TYPE: IC50 (µM)

Answered cases to consult:
MOLECULE	IC50 (µM)
CN(C)CCCNc1ccc(C(=O)Nc2n[nH]c3ccc(C(=O)NCc4cccs4)cc23)cc1	0.13
O=C(NCc1cccs1)c1ccc2[nH]nc(NC(=O)c3ccc(N4CCOCC4)cc3)c2c1	0.031
CC(C)(NC(=O)c1ccc2[nH]nc(NC(=O)c3ccc(N4CCOCC4)cc3)c2c1)c1ccccc1	0.032

1 = CCC(NC(=O)c1ccc2[nH]nc(NC(=O)c3ccc(N4CCN(CC)CC4)cc3)c2c1)c1cccs1 (stereo not drawn)
2 = O=C(Nc1n[nH]c2ccc(C(=O)NC3(c4cccs4)CC3)cc12)c1ccc(N2CCOCC2)cc1
3 = CCC(NC(=O)c1ccc2[nH]nc(NC(=O)c3ccc(N4CCC(O)CC4)cc3)c2c1)c1cccs1 (stereo not drawn)
4 = O=C(NCc1cncs1)c1ccc2[nH]nc(NC(=O)c3ccc(F)cc3)c2c1 [Example 27, 2,2,2-trifluoroacetate]
5 = CN1CCN(c2ccc(C(=O)Nc3n[nH]c4ccc(C(=O)NCC5CCCC5)cc34)cc2)CC1 [Example 90, 2,2,2-trifluoroacetate]
(Q) Order field: IC50 | Direction: descending (largest first) Write the labels, ordered according to the request.
(A) 4, 5, 1, 3, 2
(4: 0.36 µM, 5: 0.21 µM, 1: 0.025 µM, 3: 0.015 µM, 2: 0.0032 µM)

* * *

Biological target: TBK1 (Homo sapiens, UniProt Q9UHD2)
Construct: purchased Promega V3991
Sequence (Q9UHD2 1-729): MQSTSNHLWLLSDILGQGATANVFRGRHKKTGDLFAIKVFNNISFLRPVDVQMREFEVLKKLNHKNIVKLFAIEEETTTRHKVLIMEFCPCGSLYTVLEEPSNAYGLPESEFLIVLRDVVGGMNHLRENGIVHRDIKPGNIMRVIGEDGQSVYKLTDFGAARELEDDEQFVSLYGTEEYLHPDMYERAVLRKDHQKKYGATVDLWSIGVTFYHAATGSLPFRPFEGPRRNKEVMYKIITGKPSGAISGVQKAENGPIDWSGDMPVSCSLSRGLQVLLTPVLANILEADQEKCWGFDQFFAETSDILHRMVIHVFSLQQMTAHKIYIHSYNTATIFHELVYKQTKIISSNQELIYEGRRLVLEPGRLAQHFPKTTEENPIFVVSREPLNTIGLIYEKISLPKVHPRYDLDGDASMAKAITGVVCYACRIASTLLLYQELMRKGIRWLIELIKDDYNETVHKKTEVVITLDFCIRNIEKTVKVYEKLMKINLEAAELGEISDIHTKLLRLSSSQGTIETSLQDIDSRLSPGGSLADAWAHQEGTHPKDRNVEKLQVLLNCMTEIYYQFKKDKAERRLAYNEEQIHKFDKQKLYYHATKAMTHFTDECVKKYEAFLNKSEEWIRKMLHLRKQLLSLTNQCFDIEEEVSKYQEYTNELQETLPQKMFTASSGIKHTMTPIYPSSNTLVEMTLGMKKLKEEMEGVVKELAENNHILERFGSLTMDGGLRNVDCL
Assay: TBK1 inhibition, ADP-Glo Kinase Assay
Type: biochemical
Conditions: luminometer
READOUT TYPE: IC50 (µM)

Answered cases to consult:
MOLECULE	UNIT SPEC	IC50
CC(NC(=O)c1ccc2[nH]nc(NC(=O)c3ccc(N4CCN(C)CC4)cc3)c2c1)c1cccs1 (stereo not shown) [Example 44]	µM	0.0035
Cc1cnc(-c2cc3[nH]nc(NC(=O)c4ccc(NCCN5CCCCC5)cc4)c3s2)s1 [Example 253]	µM	0.62
C[C@@H]1CN(c2ccc(C(=O)Nc3n[nH]c4ccc(C(=O)NC5(c6ccccc6)CC5)cc34)cc2)CCN1 [Example 77]	µM	0.0048
Cc1cnc(-c2cc3[nH]nc(NC(=O)c4ccc(NCCN5CCCC5)cc4)c3s2)o1 [Example 226]	µM	0.12
O=C(NCc1c[nH]nn1)c1ccc2[nH]nc(NC(=O)c3ccc(N4CCOCC4)cc3)c2c1 [Example 119, 2,2,2-trifluoroacetate]	µM	0.46

P = O=C(Nc1n[nH]c2ccc(C(=O)NC3(c4cccs4)CC3)cc12)c1ccc(N2CCOCC2)cc1 [Example 48]
Q = O=C(NCc1ccncc1)c1ccc2[nH]nc(NC(=O)c3ccc(F)cc3)c2c1 [Example 29]
(Q) For P and Q , which recorded IC50 is lower? Your answer should be the label attached to the chosen record.
(A) P
(P: 0.0011 µM, Q: 0.28 µM)

Data provenance is patent US10294207B2.
